Listed here: items and their measured percentage damage caused to the plant, five point scale, IPOHE.
- Test system: Ipomoea hederacea (IPOHE)
- test: B3 Pre-Emergence Efficacy Test 1
- Assay type: in vivo
- details: 250 g/ha, after 13 days

Some solved cases for reference:
- compound: "Cc1nn(C)c(=O)c(-c2c(F)ccc(Cl)c2CCc2cc(C(F)(F)F)nc3ccccc23)c1O [Compound 1.027]"
  data_value: "3 (3=40-59%)"
- compound: "Cc1ccc2cc(/C=C/c3c(Cl)ccc(F)c3-c3c(OC(=O)C(C)C)c(C)nn(C)c3=O)ccc2n1 [Compound 4.034]"
  data_value: 0
- compound: "Cc1nn(C)c(=O)c(-c2c(F)ccc(Cl)c2/C=C/c2ccc3c(c2)OC(F)(F)O3)c1OC(=O)C(C)C [Compound 4.342]"
  data_value: "1 (1=0-19%)"
- compound: "Cc1nn(C)c(=O)c(-c2c(F)ccc(Cl)c2CCc2ccc3c(c2)CCCN3)c1O [Compound 1.019]"
  data_value: "1 (1=0-19%)"
- compound: "Cc1ccc2cc(CCc3c(Cl)ccc(F)c3-c3c(OC(=O)C(C)C)c(C)nn(C)c3=O)ccc2n1 [Compound 3.034]"
  data_value: "2 (2=20-39%)"
- compound: "Cc1nn(C)c(=O)c(-c2c(F)ccc(Cl)c2CCc2ccc3c(c2)CCC(C)N3)c1OC(=O)C(C)C (stereo not drawn) [Compound 3.030]"
  data_value: "5 (5=80-100%)"

Asked: State, in one line, measured percentage damage caused to the plant, five point scale, IPOHE of Cc1ccc2cc(/C=C/c3c(Cl)ccc(F)c3-c3c(O)c(C)nn(C)c3=O)ccc2n1 [Compound 2.034]
Given back: 0

Asked: State, in one line, measured percentage damage caused to the plant, five point scale, IPOHE of Cc1nn(C)c(=O)c(-c2c(F)ccc(Cl)c2CCc2ccnc3ccccc23)c1O [Compound 1.036]
Given back: 5 (5=80-100%)

Asked: State, in one line, measured percentage damage caused to the plant, five point scale, IPOHE of CCc1nc2ccc(CCc3c(Cl)ccc(F)c3-c3c(O)c(C)nn(C)c3=O)cc2o1 [Compound 1.028]
Given back: 5 (5=80-100%)
